# Test Method Notes: in vivo
# Settings: Sprague-Dawley, rat, po
# Description: Tmax in po dosed Sprague-Dawley rat administered for 14 days
Readout Kind: Tmax at 336 h (min)

>>> print(df.to_string())
                                   molecule  recorded_result
0  CC(C)CNC(=O)[C@H]1C[C@@](F)(c2ccc(CN3CCCC3)c(F)c2)C1 [PF-03654764]               30
1  CCNC(=O)[C@H]1C[C@@](F)(c2ccc(CN3CCCC3)c(F)c2)C1 [PF-03654746]               30
2  c1cc([C@H]2C[C@@H](CN3CCOCC3)C2)ccc1CN1CCCC1               30
3  c1cnc(OC[C@H]2C[C@H](c3ccc(CN4CCCC4)cc3)C2)nc1               30
4  CC(=O)N(C)C[C@H]1C[C@H](c2ccc(CN3CCCC3)c(Cl)c2)C1               30
